Cited source: patent US20050182242A1

Below, each of the molecules is paired with its reported PI(3, 4, 5)P3 value.
# Tested on: PI(3,4,5)P3 liposomes
# measurement protocol: Yeast proteome chip probed with PI(3,4,5)P3 liposomes
# protocol conditions: liposome binding signal on yeast proteome chip, Cy3-streptavidin detection
Please reply with the value in numeric form only.

Short answer for FUR1: yeast GST-HisX6 fusion protein on proteome chip (protein, UniProt P18562 1-216, looked up, GST-His6 fusion tag, yeast GST-HisX6 fusion protein on proteome chip) Uracil …: MSSEPFKNVYLLPQTNQLLGLYTIIRNKNTTRPDFIFYSDRIIRLLVEEGLNHLPVQKQIVETDTNENFEGVSFMGKICGVSIVRAGESMEQGLRDCCRSVRIGKILIQRDEETALPKLFYEKLPEDISERYVFLLDPMLATGGSAIMATEVLIKRGVKPERIYFLNLICSKEGIEKYHAAFPEVRIVTGALDRGLDENKYLVPGLGDFGDRYYCV : PI(3, 4, 5)P3 was 72.22

Short answer for ARP10: yeast GST-HisX6 fusion protein on proteome chip (protein, UniProt Q04549 1-284, looked up, GST-HisX6 tag, yeast GST-HisX6 fusion protein on proteome chip) Actin-like protein ARP10: MSNTIVIVYLGANRIEIGRSADACPQEIIAWKTGSINEKNREELKKIFEHYFQICNILGNREVQVLILEDIFISVVEKRIICSILFKEFDCAHVSFVPRAIVHCLSCNTRNAIVIDIGTNYTTCVPIFDLRPLQQFIKYSKRGKRQVESRIPLPGSLYMPIFFDEEYNSKNCEVDETPVINLVKNIVESLPIDLRRPLRENIIIVNIEEAYETVIRNLFKLKMDTSKIQFPKNYWQAGSACAKILLHYKGSNIVGIERDEFYNNPHIAPDWFDYYFRTGVKRLQ : PI(3, 4, 5)P3 was 30.15

Next:
Short answer for FRM2: yeast GST-HisX6 fusion protein on proteome chip (protein, UniProt P37261 1-193, looked up, GST-His6 fusion tag, yeast GST-HisX6 fusion protein on proteome chip) nitroreductase FRM2: MSPTGNYLNAITNRRTIYNLKPELPQGVGLDDVKRTVHVILKNTPTAFNSQVNRAVIIVGDTHKRIWDAVASAMPTAEAKKRPESCRDEAYGSVIFFTDEGPTEKLQRDFPALAAAFPTCAAHTTGAVQIQSWTALELLGLGANLQHYNDYVKSALPQDVPIAWTVQSQLVFGVPTALPEEKTFINNVINVYH : PI(3, 4, 5)P3 was 16.88

Short answer for GPM3: yeast phosphoglycerate mutase, GST-HisX6 fusion (protein, UniProt Q12326 1-303, looked up, GST-His6 tag, yeast phosphoglycerate mutase, GST-HisX6 fusion) Phosphoglycerate mutase 3: MTVTDTFKLFILRHGQSELNSENIFCGWIDAQLTEKGKSQARHSAKLIKQFCDSNNISLPQIGYTSRLIRTQQTMDVILEELGLKHTNYVITTNTNIKEELQDTRFEGSMPVLQTWRLNERHYGAWQGQRKPDILKEYGKEKYMYIRRDYNGKPPKVNLNLEMVQEENDQGSSTGYDFKEPNRHLKYGPEEKANERLPESESLCEVVVRLKPFLNNVVLSTANKISQESCVIVGHGSSVRSLLKVLEGISDEDIKDVDIPNGIPLVIELDRDNYSFVRKFYLDPESAKVNAQMVRDEGFEKNP : PI(3, 4, 5)P3 was 66.04

Short answer for APS2: yeast GST-HisX6 fusion protein on proteome chip (protein, UniProt Q00381 1-147, looked up, GST-HisX6 tag, yeast GST-HisX6 fusion protein on proteome chip) AP-2 complex subunit sigma: MAVQFILCFNKQGVVRLVRWFDVHSSDPQRSQDAIAQIYRLISSRDHKHQSNFVEFSDSTKLIYRRYAGLYFVMGVDLLDDEPIYLCHIHLFVEVLDAFFGNVCELDIVFNFYKVYMIMDEMFIGGEIQEISKDMLLERLSILDRLD : PI(3, 4, 5)P3 was 15.97
